Read-out: UDP glucuronosyltransferase (UGT1A1), UGT1A1 (gene 54658)
Test: LTEA_HepaRG_UGT1A1: Life Technologies and Expression Analysis (LTEA) Assay for UDP glucuronosyltransferase (UGT1A1) using HepaRG (AID 2283538)
Conditions: mRNA level, 48 h; actives raise or lower the signal
The source made the active and inactive calls. The calls were made as follows: active = hit-call score of the fitted dose curve at least 0.9, where 1 is the maximum; inactive = score below 0.9.
API: response.call in y for active, n for inactive

Before answering, review these 6 worked examples.
CCCCCCCCCCCCO :: n
O=C(O)c1ccccc1-n1cc(C(=O)O)c(=O)c2cc(Nc3c(F)cc(F)cc3Cl)c(Cl)cc21 :: n
O=C(O)c1ccccc1C(=O)OCc1ccccc1 :: y
Clc1ccccc1C(c1ccccc1)(c1ccccc1)n1ccnc1 :: y
CC(C)(C)c1csc(-c2cc3cc(OCc4ccccc4CC(=O)O)ccc3o2)n1 :: y
Cc1ncc(CO)c(CO)c1O :: n

Q. State the result this test recorded for c1ccc2ccccc2c1 .
A. y

Q. Identify the outcome logged in this assay for the compound shown: Oc1ccccc1
A. n

Q. Per the records of this test, what outcome belongs to CCCCCc1ccc(N)cc1 ?
A. n

Q. Check the results log: what was the call for CCN(CC)C(=O)c1cc(S(=O)(=O)Cc2ccccc2)c(N2CCC(c3ccccc3)CC2)cc1N(CC)CCN(C)C ?
A. y

Q. GET /call?item= O=C=NCCCCCCN=C=O returns the recorded outcome of this test.
A. n

Q. Test call for this compound, please: O=C1CCC(C2CCCCC2)CC1
A. n

The reported measurements were obtained from PubChem BioAssay (EPA / NIEHS).
